- assay_info: soluble on expression in E. coli; label from the status in PepcDB or PDB records
parameter: soluble on expression in E. coli

MKIGIIGATGKAGSRILKEALDRGHEVTAIVRNAAKITEENVKVLEKDVFSLTSNDLQAFDVVVNAFGAPAGHDHLHVDAGNVLIEAMKGAPNTKLVVVGGAGSLFVDEEKTTRVFETPGFPEEYLATAQNQGKNLEILQQTNDITWTFISPSALFALGKRTGSYKAGKDNLLVNAKGDSYVSYEDFAVAALDEIENPKHVNERFTVVSEAE = not soluble
MAHHHHHHMESQKERGNAAYREKRYRDAINAYTAAIELDLTNVRMVATLRANQAAAKMELKEYSSALLDCEFAIQNGVNSAKLYARRARIHEALNNYDDALRDIQKASEMDGSYQREFQRTKASSKKAMRKDYYKILDLPPNESDDAQIKRAYKKACLRWHPDKWANAGPEEKTHAEKMFKDVGEAFSILSDAKKKRMYDNGMIDNAVEGAGESGFSGFPGQDEALMEMMNRMFFTGGGMSGGFGFNGFPQGRRQQYQQSYTFQFF = not soluble
